- Protocol text: Specific activity of purified CHI, absorbance decrease at 384 nm, homoeriodictyol chalcone; further: unit not given here
- Assay type: biochemical
- Condition notes: purified CHI in 50 mM PBS, 100 μM substrate, 25° C.
- Method: E. coli BL21 (DE3) cells containing one of the pET28b plasmids from Table 2 or Table 3 were used to inoculate 1 L LB medium at OD of 0.1. […] The activity of the respective purified enzyme was determined by measuring the absorbance decrease at 384 nm in the reaction mix (CHI in 50 mM PBS with 100 μM of either naringenin chalcone, hesperetin chalcone, eriodictyol chalcone, homoeriodictyol chalcone or 4-O-methyl butein at 25° C.).
# Specific activity, Homoeriodctiol chalcone per record follows
Reply: number alone, nothing else.

Please review the following examples before continuing.
[Q] Which Specific activity, Homoeriodctiol chalcone value belongs to CHIera Mut14: Chalcone isomerase variant 14 from Eubacterium ramulus, genetically engineered (protein, listed as Eubacterium ramulus) MADFKFEPMRSLIYVDCVSEDYRPKLQRWIYKVHIPDSISKFEPYVTKYAFYPSFPIPPQGDRFGYARMQLTEHHWLVSELDPRLEINAIAETFPMDVLVWQGQIPAAAHTDAQIDSDGDAHRAARKSNNAEGNPFIFAFLPMWWEKDLKGKGRTIEDGANYRFNMTIGFPEGVDKAEGEKWLFEKVVPILQAAPECTRVLASAVKKDINGCVMDWVLEIWFENQSGWYKVMVDDMKALEKPSWAQQDAFPFLKPYHNVCSAAVADYTPSNNLANYRGYITMR ?
[A] 15.6

[Q] Value lookup for Specific activity, Homoeriodctiol chalcone; key = CHI14: Chalcone isomerase from Butyrivibrio sp. AC2005, access no. WP_026657636.1 (protein, Butyrivibrio sp. AC2005) AYEFNLMRSLIYVGLAKEEYRAKLEHWLYNHHVPESISKFSPYVTKYAFYQAYPTPPEGDRFGARKMQLTEHYWLVNEHLPEMANNIFQEFMPMDVLRWQGCIPDVDSATVHDNAESGDAGRAVGGGDFPPFIFAFVPINWEEDFKGKERTPVNGPNFRWQFLIQYPEGCSKDEGERWFHEEVVPFLTGSVRVNRLVSSKVKVNYGAPSAQFDRLVEVWFDGPEEWYDLCVNLAKDKLKKPEWAQQDTFPFLKPQHNIASMFLGDRCTSDNLTQYRGFITMR
[A] 28.8

[Q] Query: Specific activity, Homoeriodctiol chalcone; subject: CHI10: Chalcone isomerase from Clostridium sp. SY8519, access no. WP_013977558.1 (protein, Clostridium sp. SY8519) ADFEFNPMRSLIYIDCVKNDYRHKLQYWLYKHHIPDSIAKFEPYVSKYAFYSALPVPEDGEEFGTYNYQLTEHYWLCNPLTADFAVNSLQESFTPDVLKWQGIIPDIDITPEMMAAMQNADDARASEGSEAPGFDLPPFIFAFLPLSWEFQTKGEKLTIEDGPNYRWQFLVKYPEAADAEQADKWLMEEVIPAFAQMDEVKRILSSKVKQEVNGCVYYRVVEMWFDSPSDWHRAVKEKTGAISKPEWASTDSFPYLRPKHEMASIFLSDIPTTDNLLQYRGFIPMR
[A] 0.2

Would you kindly look at the next entry?
[Q] Query (molecule): CHIera Mut9: Chalcone isomerase variant 9 from Eubacterium ramulus, genetically engineered (protein, listed as Eubacterium ramulus) MADFKFEPMRSLIYVDCVSEDYRPKLQRWIYKVHIPDSISQFEPYVTKYAFYPSFPIPPQGDRFGYARMQLTEHHWLVSMLDPRLEIKAIAETFPMDVLVWQGQIPAAAHTDAQIDSDGDAGNAARKSNNAEGNPFIFAFLPMWWEKDLKGKGRTIEDGANYRFNMTIGFPEGVDKAEGEKWLFEKVVPILQAAPECTRVLASAVKKDINGCVMDWVLEIWFENQSGWYKVMVDDMKALEKPSWAQQDAFPFLKPYHNVCSAAVADYTPSNNLANYRGYITMR ; field requested: Specific activity, Homoeriodctiol chalcone
[A] 14.4
